Reference for the values: PubChem BioAssay

# System: Plasmodium falciparum Sir2 (PF13_0152, Sir2A)
# experimental-details: pfSir2 binders on small-molecule microarrays, primary screen, biochemical, small-molecule microarray, 635 nm fluorescence (AID 1098);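 further: score merges spot fluorescence intensity with its signal-to-noise ratio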
# condition-label: small-molecule microarray binding, fluorescence 635 nm; higher = more signal
observable: composite z-score
Provide a numeric answer; units are not to be included.

Enquiry: What reported composite z-score corresponds to C[C@H]1NC(=O)[C@@]23C(=O)N[C@@H](Cc4ccccc4)C2[C@H](C)[C@@]2(C)O[C@H]2C3/C=C/C/C=C\CNC(=O)[C@@H]2CCCN2C1=O (stereo partly drawn) on Plasmodium falciparum Sir2 (PF13_0152, Sir2A)?
Return: 0.466

Enquiry: Find composite z-score (Plasmodium falciparum Sir2 (PF13_0152, Sir2A)) for the entry COc1cc2c(cc1OC)CN(C(=O)[C@H]1[C@@H]3C(=O)O[C@@H](c4ccccc4)[C@@H](c4ccccc4)N3[C@@H](c3ccc(O)cc3)[C@]13C(=O)Nc1ccccc13)CC2
Return: 1.23

Enquiry: Form: Entry = CC(C)=CCCC(C)=CC(O)C1C=CC2C(=O)N(C)C(=O)C2N1Nc1ccccc1 (stereo not drawn) | System = Plasmodium falciparum Sir2 (PF13_0152, Sir2A) | composite z-score = ____
Return: 0.854

----------
# experimental-details: MM1S cell viability effects, profiling panel, calcein-AM fluorescence, 48 h, basal (AID 1165);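 further: viability of MM1S multiple myeloma cells under basal unstimulated conditions; test concentration not given here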
# condition-label: higher = more signal
observable: z-score

Enquiry: # get_value(readout='z-score', item= CCCCCCc1nc(-c2ccc(OC)nc2)cc2c1[Si](C(C)C)(C(C)C)O[C@H]2c1ccccc1 )
Return: -0.26

Enquiry: State the recorded z-score for this entry: NC(=O)NCC#Cc1ccc2c(c1)[C@]1(C(=O)N2)[C@H](c2ccccc2OCCO)N2[C@H](c3ccccc3)[C@H](c3ccccc3)OC(=O)[C@H]2[C@@H]1C(=O)Nc1nc2ccccc2s1
Return: 0.0225

Enquiry: # lookup: z-score of O=C1O[C@@H](c2ccccc2)[C@@H](c2ccccc2)N2[C@@H](c3ccccc3OCCO)[C@]3(C(=O)Nc4ccccc43)[C@@H](C(=O)Nc3nc4ccccc4s3)[C@H]12
Return: -3.17

----------
# tgt: Carbonic anhydrase 2 (Homo sapiens) (UniProt P00918)
# experimental-details: CAII small-molecule binders, profiling panel, biochemical, small-molecule microarray, Alexa647-labelled CAII (AID 1122)
# condition-label: CAII-A647 binding fluorescence, higher = more signal
Exercise: for every item that follows, state its recorded composite z-score.

Enquiry: # input molecule: C=CCOC(=O)[C@H]1[C@@H]2C(=O)O[C@@H](c3ccccc3)[C@@H](c3ccccc3)N2[C@@H](c2ccc(OCCOC(=O)[C@H]3C[C@H]4C(=O)N[C@@H](CCCCN(C)C)C(=O)N4[C@H]3c3ccc(O)cc3)cc2)[C@]12C(=O)Nc1ccc(I)cc12 ; wanted: its composite z-score
Return: 0.493

Enquiry: Please give the measured composite z-score for this molecule: CO[C@H]1O[C@H](CO)[C@@H](OC(=O)Nc2ccccc2)[C@H](OC(=O)Nc2ccccc2)[C@@H]1OC(=O)Nc1ccccc1
Return: 0.824

Enquiry: Using the record for C=C(CC1([C@@H](NP(=O)(c2ccccc2)c2ccccc2)[C@H]2C[C@@H]2CCCC)CC1)c1ccccc1 , report its composite z-score.
Return: 0.252

Enquiry: Param item = CC(=O)NCCCC[C@@H]1NC(=O)[C@@H]2C[C@H](C(=O)NCCCCCNC(=O)CS)[C@H](c3cccc(OCCO)c3)N2C1=O ; retrieve measured composite z-score.
Return: -0.0086

Enquiry: I would be grateful if you could share the reported composite z-score for COc1ccc(CCNC(=O)[C@@]2(Sc3ccc(C)cc3)CC(=O)N(C(C)C)[C@@H]2c2ccc(CO)cc2I)cc1 .
Return: 0.304

Enquiry: Endpoint output: composite z-score of O=C1c2ccccc2[C@](Cc2ccccc2I)(C(=O)NCCN2CCOCC2)[C@H](c2ccc(CO)cc2)N1Cc1ccccc1Cl . Value?
Return: 0.652

----------
# experimental-details: MM1S myeloma cell viability, profiling panel, resazurin fluorescence, basal, 24 h, PK04 Diversity Set (AID 1174);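 further: MM1S multiple myeloma cell line; test concentration not given here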
# condition-label: higher = more signal, called active from +8 up or from −8 down
observable: z-score
Lab note: jot down the number only; don't add units.

Enquiry: Using the record for O=C1O[C@@H](c2ccccc2)[C@@H](c2ccccc2)N2[C@@H](c3ccccc3OCCO)[C@]3(C(=O)Nc4ccc(C#CC5=CCCCC5)cc43)[C@@H](C(=O)N3CCCCCCC3)[C@H]12 , report its z-score.
Return: -6.31

Enquiry: // lookup z-score for CC(=O)NCCCC[C@@H]1NC(=O)[C@H]2C[C@@H](C(=O)NCCCCCCNC(=O)CS)[C@@H](c3ccc(O)cc3)N2C1=O
Return: -0.523

Enquiry: Query: z-score; subject: CC(C)N1C(=O)[C@@]2(Cc3ccccc31)c1ccccc1C(=O)N(Cc1ccccc1Cl)[C@H]2c1ccc(CO)cc1
Return: 0.845

Enquiry: Name the recorded z-score for C=CCOC(=O)[C@H]1[C@@H]2C(=O)O[C@@H](c3ccccc3)[C@@H](c3ccccc3)N2[C@@H](c2ccc(OCCOC(=O)[C@@H]3C[C@@H]4C(=O)N[C@@H](CCCCNC(C)=O)C(=O)N4[C@@H]3c3ccc(O)cc3)cc2)[C@]12C(=O)Nc1ccccc12 .
Return: -0.0524

Enquiry: // query z-score value for entry NC(=O)[C@@H]1[C@H]2C(=O)O[C@H](c3ccccc3)[C@H](c3ccccc3)N2[C@H](c2ccc(O)cc2)[C@@]12C(=O)Nc1ccccc12
Return: 0.307

Enquiry: What value of z-score has been reported for the following molecule? O=C1O[C@H](c2ccccc2)[C@H](c2ccccc2)N2[C@H]1[C@@H](C(=O)N1CCCCCCC1)[C@]1(C(=O)Nc3ccc(C#CC4=CCCCC4)cc31)[C@H]2c1ccc(OCCO)cc1
Return: 0.241

Enquiry: Quick one: z-score for CN(C)CCCCCCNC(=O)[C@@H]1C[C@@H]2C(=O)N[C@@H](Cc3ccccc3)C(=O)N2[C@@H]1c1ccc(O)cc1 ?
Return: -1.09

Enquiry: Looking for the measured z-score of COCCCNC(=O)[C@@]1(C)c2ccccc2C(=O)N(C(C)C)[C@H]1c1ccc(CO)cc1 , can you help?
Return: -0.18

Enquiry: Which value of z-score has been reported for COc1cccc(-c2cccc(=O)o2)c1 in the records?
Return: -0.28

Enquiry: Record request: z-score value, item O=C1C2C=CC(C(O)CCc3ccccc3)N(Nc3ccccc3F)C2C(=O)N1c1ccccc1 (centres undefined)
Return: 0.209

Enquiry: Param item = [N-]=[N+]=NCc1ccccc1[C@@H]1OC(c2ccc(OCCCO)cc2)=N[C@]1(Cc1ccccc1)C(N)=O ; retrieve measured z-score.
Return: -0.422

Enquiry: Given C=CCC(OC(C)=O)[C@@H]1[C@@H](N(Cc2ccc(-c3ccccc3)cc2)C(=O)Cc2ccc(OC)cc2)c2cc(OCCCO)ccc2N1C(=O)Cc1ccc2ccccc2c1 (some centres undefined) , state its recorded z-score.
Return: -0.541

Enquiry: Item under review: CC(C)C[C@@H]1NC(=O)[C@@H]2C[C@H](C(=O)NCc3ccc(F)cc3)[C@H](c3cccc(OCCO)c3)N2C1=O . Reported z-score?
Return: 0.279

Enquiry: Name the recorded z-score for O=C(c1ccccc1)N1C(=O)[C@]2(COC(c3ccc(OCCCO)cc3)=N2)Cc2ccccc21 .
Return: -1.96

----------
# System: Sam68 (KHDRBS1)
# experimental-details: Sam68 small-molecule binders, primary screen, biochemical, small-molecule microarray, 635 nm fluorescence (AID 1125);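 further: score merges 667 nm channel intensity with signal to noise over triplicate slides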
# condition-label: small-molecule microarray binding, higher = more signal
Please enter 1 where composite z-score is greater than or equal to 0.6, and 0 where it is lower.

Enquiry: Is the recorded value of composite z-score equal to or greater than 0.6 for this compound? O=C1C2C=CC(C(O)c3cc(C(F)(F)F)cc(C(F)(F)F)c3)N(n3cnnc3)C2C(=O)N1Cc1ccccc1 (centres undefined)
Return: 1

Enquiry: Given the entry COCCOC(=O)N1C(=O)[C@@]2(c3cc(C#CCCO)ccc31)[C@H](C(N)=O)[C@H]1C(=O)O[C@H](c3ccccc3)[C@H](c3ccccc3)N1[C@@H]2c1ccc(O)cc1 , answer whether its composite z-score meets or surpasses 0.6.
Return: 0

Enquiry: Check this compound for composite z-score at or above 0.6: CC[C@@H]1C=C(C(=O)O)[C@H](c2ccc(Br)cc2)N1S(=O)(=O)c1ccc(C)cc1
Return: 1

Enquiry: Would you say COC(=O)[C@H](Cc1ccccc1)N1CC2=C[C@@H](C3CC3)n3c(=O)n(C)c(=O)n3[C@H]2[C@@H]1[C@@H](O)Cc1ccccc1 shows composite z-score at minimum 0.6?
Return: 1

Enquiry: Reported composite z-score at or above 0.6? CN(C)CCCCCCNC(=O)[C@@H]1C[C@@H]2C(=O)N[C@@H](Cc3ccccc3)C(=O)N2[C@@H]1c1ccc(O)cc1
Return: 1

Enquiry: API: above_or_equal(metric=composite z-score, cutoff=0.6) for item C=C(CCCC)/C(=C/C[C@@H](OC(C)=O)c1ccc(OCCO)cc1)c1cnc2ccccc2c1
Return: 1

Enquiry: Has CC(C)[Si]1(C(C)C)O[C@@H](c2ccccc2)c2cc(-c3ccc(-c4ccc(Cl)c(Cl)c4)o3)nc(-c3ccccc3)c21 a recorded composite z-score greater than or equal to 0.6?
Return: 0

Enquiry: Say whether CCOC(=O)C[C@H]1[C@H](OC(=O)c2cc3ccccc3oc2=O)[C@@H](NC(=O)c2ccccc2)c2cc(OCCCO)ccc2N1C(=O)c1ccc2ccccc2n1 shows composite z-score of 0.6 or more.
Return: 1

Enquiry: Does CCCCN1CC=CC23O[C@@H]4C=CCCOC(=O)C4[C@H]2C(=O)N(CCCCCCO)[C@@H]3C1=O (some centres undefined) have a reported composite z-score of at least 0.6?
Return: 0

Enquiry: Please indicate if the recorded composite z-score for COc1ccc(CCNC(=O)[C@@H]2c3ccccc3C(=O)N(Cc3ccccc3Cl)[C@H]2c2ccc(CO)cc2)cc1 meets or exceeds 0.6.
Return: 0

Enquiry: For this compound, is measured composite z-score 0.6 or higher? CCOC(=O)C[C@H]1[C@H](OC(=O)c2ccc(C(=O)c3ccccc3)cc2)[C@@H](NC(=O)c2ccccc2)c2cc(OCCCO)ccc2N1C(=O)c1ccc2ccccc2n1
Return: 1

Enquiry: Determine whether this compound has composite z-score no lower than 0.6: COc1cc(NN2C(C(O)c3ccco3)C=CC3C(=O)N(c4ccccc4)C(=O)C32)cc(OC)c1OC (centres undefined)
Return: 0

Enquiry: Assess whether reported composite z-score for COCCOC(=O)N1C(=O)[C@@]2(c3cc(C#CC4(O)CCCCCC4)ccc31)[C@H](c1ccc(OCCO)cc1)N1[C@H](c3ccccc3)[C@H](c3ccccc3)OC(=O)[C@H]1[C@@H]2C(=O)N1CCN(c2ncccn2)CC1 sits at 0.6 or higher.
Return: 1

Enquiry: I'd appreciate it if you could say whether COc1ccc([Si](C)(C)[C@H]2[C@H](CC(=O)N3Cc4ccccc4C[C@H]3CO)O[C@@]3(C(=O)N(Cc4cccc(N5CCC5=O)c4)c4ccccc43)[C@@H]2C)cc1 has composite z-score at least equal to 0.6.
Return: 1
